Source: ChEMBL document CHEMBL1152979

Data export: pIC50 values recorded with Mast/stem cell growth factor receptor Kit (Homo sapiens, UniProt P10721).
Sequence (P10721 whole entry): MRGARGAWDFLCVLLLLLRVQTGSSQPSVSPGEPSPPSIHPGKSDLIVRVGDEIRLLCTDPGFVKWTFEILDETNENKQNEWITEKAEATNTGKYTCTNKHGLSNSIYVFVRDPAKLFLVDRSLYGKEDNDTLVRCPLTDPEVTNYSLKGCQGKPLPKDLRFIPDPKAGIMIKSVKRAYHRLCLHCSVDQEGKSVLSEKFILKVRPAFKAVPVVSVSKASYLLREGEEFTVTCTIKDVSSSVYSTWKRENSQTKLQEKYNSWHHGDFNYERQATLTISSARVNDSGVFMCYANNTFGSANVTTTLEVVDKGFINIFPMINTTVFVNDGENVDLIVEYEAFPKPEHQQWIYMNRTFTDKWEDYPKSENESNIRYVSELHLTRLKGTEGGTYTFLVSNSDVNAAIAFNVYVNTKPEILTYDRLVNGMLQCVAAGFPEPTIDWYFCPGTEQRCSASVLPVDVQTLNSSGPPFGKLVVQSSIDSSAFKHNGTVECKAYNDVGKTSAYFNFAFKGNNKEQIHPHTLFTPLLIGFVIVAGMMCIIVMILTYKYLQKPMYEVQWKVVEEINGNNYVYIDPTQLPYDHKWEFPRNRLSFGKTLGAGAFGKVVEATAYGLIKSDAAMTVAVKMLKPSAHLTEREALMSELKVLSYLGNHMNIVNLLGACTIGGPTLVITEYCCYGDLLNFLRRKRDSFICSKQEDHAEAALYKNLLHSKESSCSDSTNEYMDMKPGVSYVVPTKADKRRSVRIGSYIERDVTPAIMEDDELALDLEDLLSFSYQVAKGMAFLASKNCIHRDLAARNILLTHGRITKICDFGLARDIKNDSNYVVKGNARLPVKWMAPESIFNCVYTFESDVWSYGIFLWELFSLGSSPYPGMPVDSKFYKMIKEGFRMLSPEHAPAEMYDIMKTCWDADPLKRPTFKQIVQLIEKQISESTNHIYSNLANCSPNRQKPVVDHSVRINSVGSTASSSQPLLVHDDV
pIC50: −log10 of the molar value.

>>> value_reported("Nc1ncnc2c1c(-c1cccc(OCc3ccccc3)c1)cn2[C@H]1C[C@H](N2CCCC2)C1")
"< 5.30"

Shifting focus to the compound that follows.
q: For the compound Nc1ncnc2c1c(-c1cccc(OCc3ccccc3)c1)cn2[C@H]1C[C@@H](CN2CCC2)C1 [AEW-541] , give its reported pIC50.
a: < 5.30

---

target: UniProt Q05397
Sequence (Q05397 whole entry): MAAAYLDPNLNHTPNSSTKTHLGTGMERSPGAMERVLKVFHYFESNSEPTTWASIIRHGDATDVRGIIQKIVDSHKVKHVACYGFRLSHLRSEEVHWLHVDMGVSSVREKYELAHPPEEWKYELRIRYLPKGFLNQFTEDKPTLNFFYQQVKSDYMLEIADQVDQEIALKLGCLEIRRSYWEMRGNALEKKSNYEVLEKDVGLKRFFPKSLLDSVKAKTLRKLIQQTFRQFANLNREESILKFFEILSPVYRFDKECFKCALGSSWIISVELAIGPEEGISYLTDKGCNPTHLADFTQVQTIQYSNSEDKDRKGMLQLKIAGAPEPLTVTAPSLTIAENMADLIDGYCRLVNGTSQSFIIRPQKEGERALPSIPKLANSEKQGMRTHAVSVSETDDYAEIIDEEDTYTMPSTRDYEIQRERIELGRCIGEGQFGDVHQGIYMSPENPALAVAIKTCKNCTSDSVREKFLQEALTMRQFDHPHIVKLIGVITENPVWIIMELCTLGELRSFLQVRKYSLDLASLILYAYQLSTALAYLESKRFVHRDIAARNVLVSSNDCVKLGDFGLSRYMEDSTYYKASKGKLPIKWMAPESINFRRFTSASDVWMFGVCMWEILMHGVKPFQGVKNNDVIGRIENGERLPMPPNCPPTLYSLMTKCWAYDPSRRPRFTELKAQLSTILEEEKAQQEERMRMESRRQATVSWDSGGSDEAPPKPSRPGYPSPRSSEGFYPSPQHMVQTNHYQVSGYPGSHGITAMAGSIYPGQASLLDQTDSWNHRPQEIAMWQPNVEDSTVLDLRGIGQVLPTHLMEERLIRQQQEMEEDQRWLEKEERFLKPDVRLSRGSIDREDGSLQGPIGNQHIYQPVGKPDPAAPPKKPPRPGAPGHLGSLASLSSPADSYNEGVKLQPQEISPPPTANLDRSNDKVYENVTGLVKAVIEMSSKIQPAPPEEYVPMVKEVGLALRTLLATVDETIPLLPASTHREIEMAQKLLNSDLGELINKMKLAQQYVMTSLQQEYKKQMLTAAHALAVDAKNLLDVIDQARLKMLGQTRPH
REPORTED_METRIC: IC50 (nM)
Response body: numeric value in nM, unit text excluded.

q: For the compound Cc1cc(N2CCN(CCC#N)CC2)cc2nc(-c3c(NC[C@@H](O)c4ccccc4Cl)cc[nH]c3=O)[nH]c12 , give its reported IC50.
a: 94
